# Tested on: HS 578T breast
# assay method text: NCI-60 one-dose screen, 48 h (100 = growth as untreated, 0 = no growth, -100 = all killed)
# measurement conditions: 10 µM unless noted
About 83,000 compounds went through this panel and 20% of them were active in at least one assay; those are over-represented in the sample as a whole.
Quick reference for growth among some compounds
measure: growth (%)

# compound, measure, unit, quantitative readout
measured = [
    ("CCCn1nc(C(=O)N2CCCCC2)c2c1CCC(N1CCC(c3ccncc3)CC1)C2 (stereo not given)", "growth", "%", 103),
    ("CCOc1nc(-c2ccccc2)cc2c(O)c(C(=O)N/N=C/c3ccc(N(C)C)cc3)[nH]c(=O)c12", "growth", "%", 94.1),
    ("O=C1C(c2c[nH]c3ccccc23)=C(c2coc3cc(Br)ccc23)C(=O)N1O", "growth", "%", 94.5),
    ("O=C(Nc1ncc(Cc2cccc(C(F)(F)F)c2)s1)c1ccc2c(c1)OCCO2", "growth", "%", 21.4),
    ("CCCN1C(=O)/C(=c2\\sc3n(c2=O)NC2C(N=3)N(CC)C(=O)N2CC)c2ccccc21 (stereo not given)", "growth", "%", 27.8),
]

Data origin, for the record: PubChem BioAssay (NCI)
